# measured on: Glutamate receptor ionotropic, kainate 3 (Rattus norvegicus)
# Sequence (P42264 whole entry): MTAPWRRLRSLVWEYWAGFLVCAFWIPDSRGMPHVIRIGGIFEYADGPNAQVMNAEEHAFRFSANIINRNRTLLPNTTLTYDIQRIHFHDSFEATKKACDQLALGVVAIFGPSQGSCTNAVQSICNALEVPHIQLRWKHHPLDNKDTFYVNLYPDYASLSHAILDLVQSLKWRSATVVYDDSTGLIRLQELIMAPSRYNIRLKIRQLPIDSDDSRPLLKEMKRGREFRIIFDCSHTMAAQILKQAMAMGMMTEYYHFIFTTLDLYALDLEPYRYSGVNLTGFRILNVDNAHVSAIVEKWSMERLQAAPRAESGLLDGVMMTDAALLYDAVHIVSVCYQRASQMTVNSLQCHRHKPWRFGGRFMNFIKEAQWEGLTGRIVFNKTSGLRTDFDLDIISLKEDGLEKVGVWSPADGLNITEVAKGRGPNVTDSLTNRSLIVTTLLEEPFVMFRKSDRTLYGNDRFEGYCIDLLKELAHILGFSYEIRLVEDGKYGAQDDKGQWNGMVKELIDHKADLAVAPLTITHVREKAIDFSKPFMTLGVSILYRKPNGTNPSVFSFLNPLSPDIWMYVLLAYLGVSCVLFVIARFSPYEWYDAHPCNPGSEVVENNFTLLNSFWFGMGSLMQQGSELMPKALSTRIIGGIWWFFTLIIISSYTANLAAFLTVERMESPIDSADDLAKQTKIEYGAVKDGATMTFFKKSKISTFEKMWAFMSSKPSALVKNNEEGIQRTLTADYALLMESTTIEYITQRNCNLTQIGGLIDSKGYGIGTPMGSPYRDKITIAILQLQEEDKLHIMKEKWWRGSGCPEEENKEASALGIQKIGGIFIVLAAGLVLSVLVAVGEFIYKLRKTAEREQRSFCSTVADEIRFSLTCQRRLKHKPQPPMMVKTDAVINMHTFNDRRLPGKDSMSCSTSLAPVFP
observation type: pKi
On this scale, pKi is minus log10 of a concentration expressed in M (mol/L).

Please review the entries below; each comes with its answer.
- chemical smiles: "O=C(O)C[C@@H]1[C@@H](C(=O)O)NC[C@@H]1n1nncc1-c1ccc2cc(O)ccc2c1"
  pKi: 4.75
- chemical smiles: "O=C(O)CCCc1cnnn1[C@H]1CN[C@H](C(=O)O)[C@H]1CC(=O)O"
  pKi: 5.21

The record that follows has no pKi shown yet.
Tell me pKi of O=C(O)C[C@@H]1[C@@H](C(=O)O)NC[C@@H]1n1ccnn1 when tested on Glutamate receptor ionotropic, kainate 3 (Rattus norvegicus). 6.55

----------
# measured on: Glutamate receptor ionotropic, kainate 2 (Rattus norvegicus, UniProt P42260)
# Sequence (P42260 whole entry): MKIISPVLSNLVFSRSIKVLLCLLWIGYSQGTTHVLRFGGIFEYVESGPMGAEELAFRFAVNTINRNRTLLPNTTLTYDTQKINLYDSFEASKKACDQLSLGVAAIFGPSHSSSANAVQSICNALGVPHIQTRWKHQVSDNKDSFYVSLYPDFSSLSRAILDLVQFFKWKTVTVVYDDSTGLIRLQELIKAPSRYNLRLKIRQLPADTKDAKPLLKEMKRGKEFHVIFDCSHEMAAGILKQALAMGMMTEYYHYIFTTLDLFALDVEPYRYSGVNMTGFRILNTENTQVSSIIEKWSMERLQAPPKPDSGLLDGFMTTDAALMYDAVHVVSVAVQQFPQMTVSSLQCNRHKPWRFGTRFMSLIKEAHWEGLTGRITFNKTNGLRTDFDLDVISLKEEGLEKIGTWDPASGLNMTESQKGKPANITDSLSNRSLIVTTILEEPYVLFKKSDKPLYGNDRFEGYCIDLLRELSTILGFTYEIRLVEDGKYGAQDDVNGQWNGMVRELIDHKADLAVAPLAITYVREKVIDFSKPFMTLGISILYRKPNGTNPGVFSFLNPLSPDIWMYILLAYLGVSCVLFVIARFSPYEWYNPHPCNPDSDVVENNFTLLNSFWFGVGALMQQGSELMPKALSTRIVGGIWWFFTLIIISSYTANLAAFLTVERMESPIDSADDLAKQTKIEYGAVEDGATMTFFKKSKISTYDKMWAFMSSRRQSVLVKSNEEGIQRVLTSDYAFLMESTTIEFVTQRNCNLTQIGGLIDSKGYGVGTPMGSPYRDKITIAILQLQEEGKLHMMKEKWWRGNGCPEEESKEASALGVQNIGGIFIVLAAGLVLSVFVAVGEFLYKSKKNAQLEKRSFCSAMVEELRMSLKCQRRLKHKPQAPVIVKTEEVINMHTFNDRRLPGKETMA
# measurement description: Displacement of [3H]-KA from rat GluK2
observation type: Ki (µM)
Give your result in µM as a bare value.

For O=C(O)C[C@@H]1[C@@H](C(=O)O)NC[C@@H]1n1nncc1-c1ccccn1 , write its Ki. 7.76

----------
Listing of recorded Activity by entry.
# measured on: Glutamate receptor ionotropic, kainate 1 (Rattus norvegicus) (UniProt P22756)
# Sequence (P22756 whole entry): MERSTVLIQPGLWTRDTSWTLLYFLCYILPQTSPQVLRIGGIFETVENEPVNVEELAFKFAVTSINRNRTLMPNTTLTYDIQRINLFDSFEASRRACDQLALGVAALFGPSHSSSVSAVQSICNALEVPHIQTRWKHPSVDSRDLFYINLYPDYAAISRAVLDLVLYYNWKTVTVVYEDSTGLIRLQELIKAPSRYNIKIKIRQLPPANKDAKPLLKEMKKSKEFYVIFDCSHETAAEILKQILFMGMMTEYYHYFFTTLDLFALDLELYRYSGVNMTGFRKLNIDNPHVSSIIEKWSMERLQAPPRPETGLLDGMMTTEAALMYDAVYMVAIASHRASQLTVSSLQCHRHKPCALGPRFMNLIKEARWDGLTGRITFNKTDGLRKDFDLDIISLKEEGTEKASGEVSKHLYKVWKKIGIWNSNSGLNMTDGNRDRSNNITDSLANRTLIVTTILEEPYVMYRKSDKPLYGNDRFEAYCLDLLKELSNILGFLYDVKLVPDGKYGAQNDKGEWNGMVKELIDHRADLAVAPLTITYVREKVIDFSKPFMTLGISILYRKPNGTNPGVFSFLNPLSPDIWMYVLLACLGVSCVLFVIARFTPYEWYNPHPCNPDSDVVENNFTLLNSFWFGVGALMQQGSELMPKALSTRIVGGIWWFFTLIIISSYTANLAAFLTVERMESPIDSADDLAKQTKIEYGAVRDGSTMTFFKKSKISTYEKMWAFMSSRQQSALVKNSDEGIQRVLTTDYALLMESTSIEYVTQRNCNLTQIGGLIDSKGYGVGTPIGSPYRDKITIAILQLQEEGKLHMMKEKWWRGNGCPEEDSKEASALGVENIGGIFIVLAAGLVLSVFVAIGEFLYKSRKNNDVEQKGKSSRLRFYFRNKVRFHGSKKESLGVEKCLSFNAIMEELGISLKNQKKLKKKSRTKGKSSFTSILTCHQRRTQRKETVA
# measurement description: Displacement of [3H]-NF608 from rat GluK1 assessed as percent of radioligand binding at 10 uM relative to control
The response must be a number in % with no trailing unit.

Worked examples, 3 molecules total:
- chemical smiles: "CCc1ccc(-c2cnnn2[C@H]2CN[C@H](C(=O)O)[C@H]2CC(=O)O)cc1"
  unit of measure: "%"
  Activity: 95
- chemical smiles: "O=C(O)C[C@@H]1[C@@H](C(=O)O)NC[C@@H]1n1nncc1-c1cccc(F)c1"
  unit of measure: "%"
  Activity: 60
- chemical smiles: "O=C(O)C[C@@H]1[C@@H](C(=O)O)NC[C@@H]1n1nncc1-c1ccc(C(F)(F)F)cc1"
  unit of measure: "%"
  Activity: 95

Now turn to the next molecule.
Report measured Activity; entry is O=C(O)C[C@@H]1[C@@H](C(=O)O)NC[C@@H]1n1nncc1CO 94

----------
# measurement description: Displacement of [3H]-Kainic acid from KA in rat brain membrane preincubated for 15 mins followed by [3H]-Kainic acid addition and measured after 1 hr by scintillation counting method
# Type: cell membranes
A collection of compounds and their measured IC50
Field: numeric (nM). Do not append units.

- chemical smiles: "C/C(=C/C=C\\[C@@H](C)C(=O)O)[C@H]1CN[C@H](C(=O)O)[C@H]1CC(=O)O"
  IC50 [nM]: 28
- chemical smiles: "C/C(=C\\C=C/[C@@H](C)C(=O)O)[C@H]1CN[C@H](C(=O)O)[C@H]1CC(=O)O"
  IC50 [nM]: 1400

The record that follows has no IC50 shown yet.
Specify reported IC50 for the compound shown: C/C(=C/C=C/[C@H](C)C(=O)O)[C@H]1CN[C@H](C(=O)O)[C@H]1CC(=O)O 28
